meta.source: patent US12479850B2

EXPERIMENTAL TARGET: c-Met kinase domain recombinant protein (Homo sapiens)
Sequence (P08581 1078-1345 limits assumed): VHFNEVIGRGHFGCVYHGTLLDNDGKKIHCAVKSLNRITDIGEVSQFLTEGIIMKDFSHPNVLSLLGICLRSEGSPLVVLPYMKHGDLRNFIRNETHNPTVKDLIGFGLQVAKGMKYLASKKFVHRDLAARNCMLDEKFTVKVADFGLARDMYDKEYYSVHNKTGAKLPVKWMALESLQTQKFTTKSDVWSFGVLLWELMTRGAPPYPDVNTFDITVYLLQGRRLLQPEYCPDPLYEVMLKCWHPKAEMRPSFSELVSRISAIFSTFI
ASSAY TEXT: ELISA kinase activity assay, c-Met
pIC50: −log10 of the molar value.
REPORTED METRIC: pIC50

1) CC(C)n1cc(C(=O)Nc2ccc(-c3cc(-c4cn[nH]c4)cnc3N)c(F)c2)c(=O)n(-c2ccc(F)cc2)c1=O [No. 40]	< 7.00
2) CC(C)n1cc(C(=O)Nc2ccc(Oc3ccnc(-c4cnn(C)c4)c3)cc2)c(=O)n(-c2ccc(F)cc2)c1=O [No. 25]	> 8.00
3) Cc1nn(C)cc1-c1cc(Oc2ccc(NC(=O)c3cn(C(C)C)c(=O)n(-c4ccc(F)cc4)c3=O)cc2F)ccn1 [No. 35]	7.00 to 8.00

Task: Tell me its pIC50 given CC(C)n1cc(C(=O)Nc2ccc(Oc3ccnc(-c4cnn(C)c4)c3)c(F)c2)c(=O)n(-c2ccc(Cl)cc2)c1=O [No. 14] as the entry.
Output: > 8.00

Task: Give the value of pIC50 reported for the following: CC(C)n1nc(C(=O)Nc2ccc(Oc3ccnc(-c4cnn(C)c4)c3)c(F)c2)c(=O)n(-c2ccc(F)cc2)c1=O [No. 24]
Output: 7.00 to 8.00

Task: Read off the recorded pIC50 for CC(C)n1cc(C(=O)Nc2ccc(Oc3ccnc(-c4cnn(C)c4)c3)c(F)c2)c(=O)n([C@H]2CC[C@H](C)CC2)c1=O [No. 22]
Output: < 7.00

Task: Name the recorded pIC50 of the item CC(C)n1cc(C(=O)Nc2ccc(Oc3ccnc4c3CCN4)c(F)c2)c(=O)n(-c2ccc(F)cc2)c1=O [No. 51] in your answer.
Output: > 8.00

Task: Indicate its recorded pIC50; the compound in question is CC(C)n1cc(C(=O)Nc2ccc(Oc3ccnc(-c4cnn(C)c4)c3)c(F)c2)c(=O)n(-c2ccccc2)c1=O [No. 13]
Output: 7.00 to 8.00

Task: Give a short answer stating reported pIC50 for CC(C)n1cc(C(=O)Nc2ccc(Oc3ccnc(-c4cnn(CCN5CCN(C)CC5)c4)c3)c(F)c2)c(=O)n(-c2ccc(F)cc2)c1=O [No. 34] .
Output: 7.00 to 8.00

Task: Answer with the recorded pIC50 of Cn1cc(-c2cc(Oc3ccc(NC(=O)c4cn(C)c(=O)n(-c5ccc(F)cc5)c4=O)cc3F)ccn2)cn1 [No. 1] only.
Output: > 8.00

Task: Identify measured pIC50 associated with Cn1cc(-c2cc(Oc3ccc(NC(=O)c4cn(CC5CCCC5)c(=O)n(-c5ccc(F)cc5)c4=O)cc3F)ccn2)cn1 [No. 6]
Output: 7.00 to 8.00

Task: Respond only with pIC50 recorded for CC(C)n1cc(C(=O)Nc2ccc(Oc3ccnc4[nH]ccc34)c(F)c2)c(=O)n(-c2ccc(F)cc2)c1=O [No. 41]
Output: > 8.00

Task: Give the measured pIC50 for CCn1cc(C(=O)Nc2ccc(Oc3ccncc3-c3cnn(C)c3)cc2)c(=O)n(-c2ccc(F)cc2)c1=O [No. 52]
Output: 7.00 to 8.00

Task: For the compound CC(C)n1cc(C(=O)Nc2ccc(Oc3ccnc(-c4cn[nH]c4)c3)c(F)c2)c(=O)n(-c2ccc(F)cc2)c1=O [No. 31] , give its measured pIC50 value.
Output: 7.00 to 8.00
